system: CCRF-CEM leukemia; test: NCI tumour cell line growth inhibition, 48 h
Measured Endpoint: TGI (µM)
Report the value in µM with no unit label.

Examples with their reported TGI follow.
Smiles String | Units Text | TGI
NCCNCc1c2ccccc2c(CNCCN)c2ccccc12 | µM | 86.2
O=C(Nc1ccccc1)c1cc(S(=O)(=O)Nc2nc3ccccc3o2)c(SCc2ccccc2)cc1Cl | µM | 28.5

Next molecule, please.
Using the record for "COc1cc(-c2[o+]c3cc(O)cc(O)c3cc2O)cc(O)c1O" , report its TGI.
75.9

* * *

test system: SK-MEL-5 melanoma; experiment: NCI tumour cell line growth inhibition, 48 h
Measured Endpoint: TGI (µM)
Report the value in µM with no unit label.

Examples with their reported TGI follow.
Compound | Target Of Assay | Measured Endpoint | Units Text | Value Reported
O=C(c1ccco1)c1c(C(F)(F)F)n([O-])c2ccc(Cl)cc2[n+]1=O | SK-MEL-5 melanoma | TGI | µM | 1.64
COC(=O)C(C/C=C(\C)c1ccc(Cl)cc1)C(C)=O (centres undefined) | SK-MEL-5 melanoma | TGI | µM | 51.7
CC(C)(C)c1c2c(c(C(C)(C)C)c3c1OCN(Cc1ccccc1)C3)OCN(Cc1ccccc1)C2 | SK-MEL-5 melanoma | TGI | µM | 21

Value wanted: TGI (SK-MEL-5 melanoma) of entry "O=C(CSc1nc2ccc(I)cc2c(=O)n1Cc1ccccc1)NNC(=O)c1ccccc1"
33

Would you mind doing "CN1CCN(c2ccc3nc(-c4ccc5nc(-c6ccc(O)cc6)[nH]c5c4)[nH]c3c2)CC1" as well?
158

Would you mind doing "COc1ccc(/C=C2\C=C(c3ccccc3)N(CCc3ccccc3)C2=O)cc1OC" as well?
94.5

Would you mind doing "Cc1cccc(-c2cc(=O)c3c(C)cc(C)nc3[nH]2)c1" as well?
15.8

* * *

tested on: UACC-257 melanoma; experiment: NCI tumour cell line growth inhibition, 48 h
Tag: Fulfilled if measured TGI is not below 20 µM, Not fulfilled if it is.

Example results:
Molecule | Group Label
O=C(OCc1ccccc1)N(CCCCN(CCCNCc1ccccc1)C(=O)OCc1ccccc1)CCCNCc1ccccc1 | Not fulfilled
NCCNCc1c2ccccc2c(CNCCN)c2ccccc12 | Fulfilled
CCN(CC)CCNc1ccc2nnn3c4ccc(O)cc4c(=O)c1c23 | Fulfilled
O=C(C/C(=N/O)c1cc(-c2ccccc2)no1)c1ccccc1 | Fulfilled
Cc1cccc(-c2cc(=O)c3c(C)cc(C)nc3[nH]2)c1 | Fulfilled
O=C1C(Cl)N(c2cccc([N+](=O)[O-])c2)C1c1c[nH]c2ccccc12 (stereo not given) | Fulfilled
Cc1cc(S(=O)(=O)/N=C(/[N-]S(=O)(=O)c2ccc(Cl)cc2)[n+]2ccc(N(C)C)cc2)c(SCC(=O)O)cc1Cl | Fulfilled
CN1C/C=C/CCOc2cccc(c2)-c2ccnc(n2)Nc2cccc(c2)C1 | Not fulfilled
COc1cc(C(=O)Nc2cc(OC)c3ccn(C)c3c2)cc2c1C[C@]1(C)CC[C@@H](O)C(C)(C)[C@H]1O2 | Fulfilled
O=S(=O)(/N=c1/scc(-c2ccccc2)n1-c1ccccc1)c1ccc(N2N=C3c4ccccc4CC3C2c2cccs2)cc1 (stereo not given) | Fulfilled

# check: TGI of CSc1nc2c(ncn2C2OCC(O)C(O)C2O)c(=O)n1C (stereo not given) is greater than or equal to 20 µM
Fulfilled

Would you mind doing "O=C(NCCNCCCNC(=O)c1cc(-c2ccccc2)nc2ccccc12)c1cccc(OCc2ccccc2)c1OCc1ccccc1" as well?
Not fulfilled

Would you mind doing "O=C(c1ccc(Cl)cc1)N(C(=S)OCc1ccccn1)c1ccccc1" as well?
Fulfilled

Would you mind doing "O=C(Nc1ccccc1)c1cc(S(=O)(=O)Nc2nc3ccccc3o2)c(SCc2ccccc2)cc1Cl" as well?
Fulfilled

Would you mind doing COC(=O)C1(C(=O)OC)N=C(C)OC1/C=C/c1ccccc1 (stereo not given) as well?
Fulfilled

Would you mind doing "O=c1cn[nH]c(=S)n1/N=C/c1c[nH]c2ccccc12" as well?
Fulfilled

Would you mind doing "c1ccc2cc(C[n+]3ccn(CCCCCCCCCCn4cc[n+](Cc5ccc6ccccc6c5)c4)c3)ccc2c1" as well?
Not fulfilled

Would you mind doing "Cn1c(/C=C/[N+](=O)[O-])cc2ccccc21" as well?
Not fulfilled

Would you mind doing "COc1ccc(/C=C2\CCC/C(=C\c3ccc(O)c(CN4CCCCC4)c3)C2=O)cc1" as well?
Fulfilled

Would you mind doing C=C(CN1CC2C[C@](C(=O)OC)(c3cc4ccccc4[nH]3)C1C(OC)C2OC)S(=O)(=O)c1ccccc1 (stereo not given in full) as well?
Not fulfilled

* * *

test system: MDA-MB-435; experiment: NCI tumour cell line growth inhibition, 48 h
Measured Endpoint: TGI (µM)
Report the value in µM with no unit label.

Compound | Target Of Assay | TGI / µM
Cc1c(O)c2c(c(O)c1Br)C(=O)C=CC2=O | MDA-MB-435 | 0.451

Using the record for "O=C(c1ccco1)c1c(C(F)(F)F)n([O-])c2ccc(Cl)cc2[n+]1=O" , report its TGI.
7.66

Would you mind doing C=C(CN1CC2C[C@](C(=O)OC)(c3cc4ccccc4[nH]3)C1C(OC)C2OC)S(=O)(=O)c1ccccc1 (stereo not given in full) as well?
7.21

Would you mind doing CCOC(=O)C(NC(=O)c1ccccc1)(Nc1ccc(Cl)cc1C(F)(F)F)C(F)(F)F (stereo not given) as well?
3.24

* * *

test system: HOP-92 NSCLC; experiment: NCI tumour cell line growth inhibition, 48 h
Tag: satisfied if measured TGI is not below 50 µM, not satisfied if it is.

Example results:
Compound | Group Label
O=C1CCSC2=C1SCc1sccc12 | satisfied
CC1=CC(=O)CC(C)(C)C1/C=C/C(C)=C/C=C/C(C)=C/C=C/C=C(C)/C=C/C=C(C)/C=C/C1=C(C)CC(O)CC1(C)C (stereo not given) | satisfied
Cc1cc(C(C)(C)C)cc(CNC2CCCCC2)c1O | not satisfied
COc1cc(C2C(Cl)C(=O)N2NC(=O)c2ccc(N)cc2)cc(Br)c1O (stereo not given) | not satisfied
O=C(C/C(=N/O)c1cc(-c2ccccc2)no1)c1ccccc1 | satisfied

# check: TGI of "COc1ccc(/C=C/C(=O)c2ccc(OC)c(OC)c2)cc1O" is greater than or equal to 50 µM
not satisfied

Would you mind doing "O=C(O)CCCc1ccc2ccccc2c1" as well?
satisfied

Would you mind doing "Cc1cc(S(=O)(=O)/N=C(/[N-]S(=O)(=O)c2ccc(Cl)cc2)[n+]2ccc(N(C)C)cc2)c(SCC(=O)O)cc1Cl" as well?
satisfied

* * *

system: COLO 205 colon; assay: NCI tumour cell line growth inhibition, 48 h; in the data active = GI50 below about 0.43 µM; inactive = the rest
Log the outcome using a class from active, inactive

Just curious, what result did "COc1cc2c(cc1Nc1nc(Nc3cccc(F)c3C(N)=O)c3cc[nH]c3n1)N(C(=O)CN1CCN(C(C)C)CC1)CC2" get here?
inactive

Would you mind doing O=C1c2ccccc2-c2c1c1ccccc1c(=O)n2CCCNCCCCNCCCN1C(=O)c2ccccc2C2C(=O)c3ccccc3C21 (stereo not drawn) as well?
inactive

Would you mind doing "O=C1c2cccc(NCCN=Cc3ccccc3O)c2C(=O)c2c(NCCN=Cc3ccccc3O)cccc21" as well?
inactive

Would you mind doing "COc1cc([N+](=O)[O-])c(OC)cc1-c1nc2sc(Cl)cn2c1/C=N/NC1=NCCN1" as well?
inactive

Would you mind doing "Cn1c(/C=C/[N+](=O)[O-])cc2ccccc21" as well?
inactive

* * *

tested on: RXF 393 renal; assay: NCI tumour cell line growth inhibition, 48 h
Measured Endpoint: TGI

Examples with their reported TGI follow.
Compound | TGI
Fc1ccc(-c2sc(-c3cccs3)cc2Cc2cccs2)cc1 | > 100 µM
O=C(Nc1n[nH]c2nnc(-c3cccnc3)cc12)C1CC1 | > 17.9 µM
C/C(=N\Nc1nc2cccnc2s1)c1ccccn1 | 19.9 µM

Using the record for COC(=O)C1=C(OC(=O)/C=C/c2ccc(Cl)cc2)C(C(=O)OC)[C@@]2(O)[C@@H](C(=O)OC)[C@H](C)C[C@@H]1[C@@H]2C(=O)OC (some centres undefined) , report its TGI.
> 100 µM

Would you mind doing "O=c1ssc(Cl)c1Cl" as well?
> 10 µM

Would you mind doing CCNC(=O)O/N=C1\CCC2[C@@H]3CC=C4C[C@@H](OC5CCCCO5)CC[C@]4(C)C3CC[C@]12C (some centres undefined) as well?
5.64 µM

Would you mind doing COC(=O)C(C/C=C(\C)c1ccc(Cl)cc1)C(C)=O (centres undefined) as well?
> 95.9 µM

Would you mind doing CC(=O)OC1CC2C3CCC4C[C@@H](NC(=O)C=C(C)C)CC[C@]4(C)C3CC[C@]2(C)[C@H]1C(C)N(C)C (some centres undefined) as well?
3.66 µM

Would you mind doing "Cc1cc(S(=O)(=O)/N=C(/[N-]S(=O)(=O)c2ccc(Cl)cc2)[n+]2ccc(N(C)C)cc2)c(SCC(=O)O)cc1Cl" as well?
> 100 µM
